test system: Daudi; assay: Inhibition of tumor cell line proliferation (Table 3), Daudi; type: cell-based; settings: Human Burkitt's lymphoma cells
quantity measured: pIC50
One number for each entry, as −log10 of the molar value.

IN: If you can, please state the reported pIC50 value of Nc1nc2c(ncn2[C@@H]2O[C@@H]3CO[P@@](=O)(S)O[C@H]4[C@H](F)[C@H](n5cnc6c(N)nc(Cl)nc65)O[C@@H]4CO[P@@](=O)(S)O[C@@H]2[C@@H]3O)c(=O)[nH]1 [CDN-3] .
OUT: 6.37
